measuredTarget: RNA-binding protein pos-1 (Caenorhabditis elegans)
Sequence (G5EF15 whole entry, the tested form may be a part): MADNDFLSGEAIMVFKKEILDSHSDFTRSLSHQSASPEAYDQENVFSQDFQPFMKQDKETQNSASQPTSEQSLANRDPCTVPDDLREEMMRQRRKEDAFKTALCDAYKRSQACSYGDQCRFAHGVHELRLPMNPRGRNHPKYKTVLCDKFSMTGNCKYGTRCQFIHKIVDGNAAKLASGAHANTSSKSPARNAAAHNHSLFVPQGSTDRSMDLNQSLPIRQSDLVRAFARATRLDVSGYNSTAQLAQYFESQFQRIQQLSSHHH
assayOverview: inhibitors of POS-1/mex-3 RNA binding, dose response, biochemical, fluorescence polarization (AID 1964);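 also: purified POS-1 fused to maltose binding protein made in E. coli; potency of compounds blocking POS-1 binding to fluorescent RNA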
assayReadout: EC50

Below, each entry is followed by its recorded EC50 result.
{"mol": "O=C1NC(=O)N(CCc2ccccc2)C(=O)/C1=C/NCCCn1ccnc1", "EC50": "> 300 µM (not active)"}
{"mol": "CCN(CC)c1ccc(N/C=C2/C(=O)NC(=O)N(c3ccc(OC)cc3)C2=O)cc1", "EC50": "9.58 µM (inconclusive)"}

Prompt line: For the molecule shown here, "Cc1c2cc(O)c(=O)cc-2oc2cc(O)c(O)cc12" , give the reported EC50.
Response line: 1.9 µM (inconclusive)

* * *

UniProt P05177 data, read-out AC50
Sequence (P05177 whole entry): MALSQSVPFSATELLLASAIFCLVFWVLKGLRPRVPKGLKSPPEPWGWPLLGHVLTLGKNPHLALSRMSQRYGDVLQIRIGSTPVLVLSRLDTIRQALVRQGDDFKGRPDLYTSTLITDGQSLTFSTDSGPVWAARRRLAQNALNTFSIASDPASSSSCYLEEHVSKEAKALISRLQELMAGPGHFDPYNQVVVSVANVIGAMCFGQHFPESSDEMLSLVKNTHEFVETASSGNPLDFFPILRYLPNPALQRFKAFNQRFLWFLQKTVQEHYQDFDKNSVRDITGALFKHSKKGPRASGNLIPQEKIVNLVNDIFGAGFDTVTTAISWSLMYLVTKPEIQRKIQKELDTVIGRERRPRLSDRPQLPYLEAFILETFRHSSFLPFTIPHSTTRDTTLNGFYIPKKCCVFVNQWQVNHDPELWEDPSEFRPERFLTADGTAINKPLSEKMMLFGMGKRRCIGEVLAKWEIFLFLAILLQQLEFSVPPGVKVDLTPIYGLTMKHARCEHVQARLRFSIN

{"mol": "CCOC(=O)c1ccccc1NC(=O)/C(C)=C/C(=O)O", "measuredTarget": "UniProt P05177", "assayReadout": "AC50", "result": "20 µM (inconclusive)"}
{"mol": "CC(C)N1CCC(=NNC(=O)c2ccc(Br)o2)CC1", "measuredTarget": "UniProt P05177", "assayReadout": "AC50", "result": "17.8 µM (inconclusive)"}
{"mol": "O=C(SCc1cccc2ccccc12)c1ccc(Cl)cc1", "measuredTarget": "UniProt P05177", "assayReadout": "AC50", "result": "0.794 µM (inconclusive)"}

Proceed to the following item.
Prompt line: For the compound shown here, "Cn1c(=O)c2[nH]c(SCCN3CCOCC3)nc2n(C)c1=S" , give the reported AC50.
Response line: 0.631 µM (inconclusive)

* * *

measuredTarget: Nuclear receptor subfamily 0 group B member 1 (Homo sapiens);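 also: HEK293T cells transfected with SF-1 and DAX-1 plus StAR promoter luciferase reporter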
Sequence (P51843 whole entry): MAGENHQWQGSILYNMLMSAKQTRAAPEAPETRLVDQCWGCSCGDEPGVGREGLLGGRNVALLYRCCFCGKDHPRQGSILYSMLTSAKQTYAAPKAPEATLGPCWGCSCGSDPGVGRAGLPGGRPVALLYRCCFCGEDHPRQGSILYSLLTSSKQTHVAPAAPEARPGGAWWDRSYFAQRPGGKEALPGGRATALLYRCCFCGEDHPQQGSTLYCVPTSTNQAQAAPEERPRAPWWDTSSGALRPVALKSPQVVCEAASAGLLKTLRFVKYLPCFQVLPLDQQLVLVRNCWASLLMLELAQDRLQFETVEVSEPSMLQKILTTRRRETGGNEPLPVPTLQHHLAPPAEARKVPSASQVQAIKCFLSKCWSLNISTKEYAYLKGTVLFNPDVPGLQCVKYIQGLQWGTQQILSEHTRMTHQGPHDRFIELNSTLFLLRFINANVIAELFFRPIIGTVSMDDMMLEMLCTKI
Assay type: functional, cell-based
Calls of active or inactive are those of the source.
Assign a class; possible classes are active, inactive

Please review the following examples before continuing.
{"molecule": "COc1c(C=O)c2c(c(OC)c1OC)-c1ccc(OC)c(=O)cc1C(NC(C)=O)CC2 (centres undefined)", "cat": "inactive"}
{"molecule": "O=C(COc1ccc(Cl)cc1Cl)NC(=O)NC1CCCC1", "cat": "inactive"}
{"molecule": "COc1ccc(/C=N/Nc2nc3ccccc3o2)cc1O", "cat": "inactive"}

We now examine a further molecule.
Prompt line: Hi, do you know how "Cc1ccsc1/C=C/c1ccc2ccccc2n1" came out in this test?
Response line: active

* * *

measuredTarget: Large T antigen (Simian virus 40);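 also: Confirmatory-stage PubChem screen for compounds that inhibit SV40 T antigen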
Sequence (P03070 whole entry): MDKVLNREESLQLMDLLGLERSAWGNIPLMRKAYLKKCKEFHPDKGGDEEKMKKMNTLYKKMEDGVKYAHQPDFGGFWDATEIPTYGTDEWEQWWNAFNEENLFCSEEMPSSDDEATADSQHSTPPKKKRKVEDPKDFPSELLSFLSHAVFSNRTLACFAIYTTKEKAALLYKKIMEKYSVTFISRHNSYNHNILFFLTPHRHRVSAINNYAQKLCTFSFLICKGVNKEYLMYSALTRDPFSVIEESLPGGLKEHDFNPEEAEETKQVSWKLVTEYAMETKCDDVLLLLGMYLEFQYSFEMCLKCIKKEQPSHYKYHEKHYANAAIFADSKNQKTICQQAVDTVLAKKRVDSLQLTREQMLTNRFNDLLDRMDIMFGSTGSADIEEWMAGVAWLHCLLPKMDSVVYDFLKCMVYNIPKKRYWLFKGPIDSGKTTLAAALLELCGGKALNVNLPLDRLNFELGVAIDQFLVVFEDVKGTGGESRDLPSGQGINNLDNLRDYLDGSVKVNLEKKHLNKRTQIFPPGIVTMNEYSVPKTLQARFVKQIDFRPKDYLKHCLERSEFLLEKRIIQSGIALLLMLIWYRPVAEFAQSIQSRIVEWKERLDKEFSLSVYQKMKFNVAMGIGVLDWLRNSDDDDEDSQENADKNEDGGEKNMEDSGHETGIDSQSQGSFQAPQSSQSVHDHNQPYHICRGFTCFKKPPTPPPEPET
Type: functional, Betapolyomavirus macacae
Activity calls are given as the source filed them.
assayReadout: IC50

{"compound": "CCn1cnc2cc(NCc3cccc(OC)c3O)ccc21", "assayReadout": "IC50", "result": "13.3 µM (active)"}
{"compound": "O=C(N/N=C/c1ccc(O)c(O)c1)c1cc(-c2ccccc2)nc2ccccc12", "assayReadout": "IC50", "result": "54.1 µM (active)"}
{"compound": "O=C(CC(Sc1ccc(Br)cc1)C(=O)O)c1ccc(Br)cc1 (centres undefined)", "assayReadout": "IC50", "result": "49.4 µM (active)"}
{"compound": "N#CSCC(=O)N1c2ccccc2CCc2ccccc21", "assayReadout": "IC50", "result": "22 µM (active)"}
{"compound": "CO/C(O)=C(/C=N/c1ccc(O)cc1)[N+](=O)[O-]", "assayReadout": "IC50", "result": "62.1 µM (active)"}
{"compound": "COc1cc(-c2c(C#N)c(O)nc3c2c(C)nn3-c2ccccc2)ccc1O", "assayReadout": "IC50", "result": "> 100 µM (active)"}
{"compound": "C/C(=N\\NC(=O)CSc1nc2ccccc2o1)c1ccc(O)cc1", "assayReadout": "IC50", "result": "18.9 µM (active)"}
{"compound": "Oc1ccc(/C=N/n2c(S)nnc2COc2ccccc2)cc1O", "assayReadout": "IC50", "result": "6.29 µM (active)"}

Proceed to the following item.
Prompt line: What is its IC50 for Large T antigen (Simian virus 40)? Entry: "C=CC(=O)Oc1ccc(N2Cc3ccccc3C2=O)cc1"
Response line: 4.45 µM (active)

* * *

measuredTarget: DNA repair protein RAD52 homolog (Homo sapiens, UniProt P43351)
Sequence (P43351 whole entry): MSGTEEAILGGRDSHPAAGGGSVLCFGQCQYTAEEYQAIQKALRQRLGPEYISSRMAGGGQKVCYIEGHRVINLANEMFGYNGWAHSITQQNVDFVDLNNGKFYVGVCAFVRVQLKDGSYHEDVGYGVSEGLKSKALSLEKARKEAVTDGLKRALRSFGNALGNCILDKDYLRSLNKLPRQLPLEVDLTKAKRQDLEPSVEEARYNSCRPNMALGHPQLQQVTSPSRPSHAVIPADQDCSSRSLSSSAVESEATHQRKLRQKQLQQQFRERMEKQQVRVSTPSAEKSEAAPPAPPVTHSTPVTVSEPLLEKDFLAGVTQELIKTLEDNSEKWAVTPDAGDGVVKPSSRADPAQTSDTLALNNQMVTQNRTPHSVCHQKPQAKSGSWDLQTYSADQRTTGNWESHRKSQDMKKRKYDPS
Assay type: functional, biochemical
The source made the active and inactive calls.
So I've got a bunch of compounds here, and I need their AC50 values.

Below, each entry is followed by its recorded AC50 result.
{"compound": "CCc1cccc2c1Sc1ccccc1CC2N1CCNCC1 (centres undefined)", "result": "18 µM (active)"}
{"compound": "Cc1cc(N/N=C/c2ccccc2O)c2ccccc2n1", "result": "5.36 µM (active)"}
{"compound": "Oc1ccc2c3c1O[C@H]1c4[nH]c5c(c4CC4(O)C(C2)N(CC2CC2)CCC314)CC1(O)[C@H]2Cc3ccc(O)c4c3[C@@]1(CCN2CC1CC1)C5O4 (some centres undefined)", "result": "11.1 µM (active)"}

Proceed to the following item.
Prompt line: What is its AC50 for DNA repair protein RAD52 homolog (Homo sapiens, UniProt P43351)? Entry: "Cc1cccc(-c2nc(NCCCN(C)C)c3ccccc3n2)c1"
Response line: 9.69 µM (active)

* * *

So I've got a bunch of compounds here, and I need their EC50 values.
measuredTarget: Mucolipin-3 (Homo sapiens)
Sequence (Q8TDD5 whole entry): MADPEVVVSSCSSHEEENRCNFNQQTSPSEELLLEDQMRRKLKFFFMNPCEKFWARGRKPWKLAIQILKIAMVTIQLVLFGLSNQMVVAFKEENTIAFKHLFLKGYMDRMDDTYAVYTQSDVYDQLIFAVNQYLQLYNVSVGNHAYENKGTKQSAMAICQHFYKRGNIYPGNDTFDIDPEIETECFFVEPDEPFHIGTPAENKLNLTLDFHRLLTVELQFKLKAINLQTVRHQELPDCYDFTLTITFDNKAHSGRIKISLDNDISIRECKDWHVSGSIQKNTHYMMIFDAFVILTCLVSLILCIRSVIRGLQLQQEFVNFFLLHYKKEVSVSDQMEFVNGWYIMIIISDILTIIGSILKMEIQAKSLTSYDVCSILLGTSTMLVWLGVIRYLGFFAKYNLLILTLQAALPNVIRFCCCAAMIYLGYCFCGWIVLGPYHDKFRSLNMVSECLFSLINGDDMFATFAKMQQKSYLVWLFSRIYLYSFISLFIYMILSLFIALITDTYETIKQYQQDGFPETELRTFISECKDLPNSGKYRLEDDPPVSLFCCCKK
assayOverview: Dose response cell-based high-throughput screening assay for agonists of the transient receptor potential channel ML3 (TRPML3). [Related pubchem assays: 1526, 1424, 1448 ]
Assay type: functional
Calls of active or inactive are those of the source.

Below, each entry is followed by its recorded EC50 result.
{"compound": "CCC(Oc1cc(Cl)ccc1Cl)C(=O)NN1C(=O)C2C3CCC(C3=C(C)C)C2C1=O (centres undefined)", "assayReadout": "EC50", "result": "3.99 µM (active)"}
{"compound": "CCN(C1CCCCC1)S(=O)(=O)c1cc(C)ccc1OC", "assayReadout": "EC50", "result": "3.39 µM (active)"}
{"compound": "CN(C)S(=O)(=O)N1CCN(c2cc(Cl)ccc2Cl)CC1", "assayReadout": "EC50", "result": "26.5 µM (not active)"}

Proceed to the following item.
Prompt line: For the compound shown here, "CCCC(=O)Oc1c(S(=O)(=O)c2ccc(C)cc2)c(C)nn1C(C)(C)C" , give the reported EC50.
Response line: 2.31 µM (active)

* * *

So I've got a bunch of molecules here, and I need their EC50 values.
assayOverview: cytotoxicity toward NIH3T3 fibroblasts, dose response, counter-screen, cell-based, ATP luminescence, mouse fibroblasts (AID 2010);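 also: cells exposed to compound for about 90 hours before reading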
Assay type: functional
The source made the active and inactive calls.

Below, each entry is followed by its recorded EC50 result.
{"molecule": "CC(=O)NCc1ccc(C(=O)CCl)s1", "EC50": "3.9 µM (active)"}
{"molecule": "CCOc1ccc(CN2CCCC(N3CCN(c4ccc(OC)cc4)CC3)C2)cc1 (configuration not stated)", "EC50": "> 60 µM (not active)"}

Dear colleague, could you send me EC50 for each of the items below? Thanks.
1. Cc1ccc2sc(N(CCCN(C)C)C(=O)c3ccc(S(=O)(=O)N4CCOCC4)cc3)nc2c1C
2. CCCCCCOC(=O)C[N+](C)(C)CCOC1CC2CCC1(C)C2(C)C (configuration not stated)

Response line:
> 60 µM (not active)
> 30 µM (not active)

Dear colleague, could you send me EC50 for each of the items below? Thanks.
1. COc1ccc(C(=O)N/N=C(\C)Cn2cnc([N+](=O)[O-])n2)cc1
2. CC1=CC(C)(C)Nc2ccccc21
3. O=C(CSC1c2ccccc2-c2ccccc21)N/N=C/c1ccccc1O
4. CCCCn1c(N)c(N(CCC(C)C)C(=O)c2ccc([N+](=O)[O-])s2)c(=O)[nH]c1=O
5. O=C(c1ccco1)N(CCCN1CCOCC1)c1nc(-c2ccc(F)cc2)cs1
6. Cc1c(CCOC(=O)c2cc([N+](=O)[O-])cc([N+](=O)[O-])c2)sc[n+]1CC(=O)c1ccccc1
7. Cc1cc(NC(=O)C23CC4CC(C2)CC(n2cnc([N+](=O)[O-])n2)(C4)C3)no1

Response line:
1: > 60 µM (not active); 2: > 60 µM (not active); 3: 9.08 µM (active); 4: > 60 µM (not active); 5: 30.5 µM (active); 6: > 60 µM (not active); 7: > 30 µM (not active)

Prompt line: For the molecule shown here, "COc1ccc(/C=C2/CCc3ccccc3C2=O)cc1CN1CCOCC1" , give the reported EC50.
Response line: > 60 µM (not active)
